Target or test system: Bovine Carbonic Anhydrase-II (Bos taurus, UniProt P00921)
Construct: pure bovine erythrocyte CA-II; from tissue; host or cells: bovine erythrocytes
Sequence (P00921 whole entry): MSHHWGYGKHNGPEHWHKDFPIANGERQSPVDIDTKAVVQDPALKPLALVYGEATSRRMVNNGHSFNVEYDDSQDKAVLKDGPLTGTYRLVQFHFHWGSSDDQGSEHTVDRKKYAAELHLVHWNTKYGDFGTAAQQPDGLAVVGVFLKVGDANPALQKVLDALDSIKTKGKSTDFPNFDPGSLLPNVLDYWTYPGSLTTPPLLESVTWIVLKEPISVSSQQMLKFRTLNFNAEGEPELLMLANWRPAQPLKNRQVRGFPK
Experiment: Kinetics studies (Lineweaver-Burk, Dixon plots) against Bovine Carbonic Anhydrase-II
Format: biochemical
Run conditions: from secondary replots / Dixon plot; read-out: Ki
Measure name: Ki (nM)

a. NS(=O)(=O)c1ccc(NC(=S)NC(=O)c2ccccc2[N+](=O)[O-])cc1
b. Cc1ccc(C(=O)NC(=S)Nc2ccc(S(N)(=O)=O)cc2)cc1
QUERY: Endpoint returns the identifier whose Ki is numerically larger, either a or b . // caller expects the label of the chosen entry
RESULT: a
(a: 140 nM, b: 58 nM)

P. NS(=O)(=O)c1ccc(NC(=S)NC(=O)c2ccc(Cl)cc2)cc1
Q. COc1cccc(C(=O)NC(=S)Nc2ccc(S(N)(=O)=O)cc2)c1
R. NS(=O)(=O)c1ccc(NC(=S)NC(=O)c2ccc(Cl)cc2Cl)cc1
QUERY: Rank order required: Ki, descending. Could you list the labels in the order requested?
RESULT: Q, P, R

----------
Target or test system: Bovine Carbonic Anhydrase-II (Bos taurus)
Construct: pure bovine erythrocyte CA-II; from tissue; host or cells: bovine erythrocytes
Experiment: Kinetics studies (Lineweaver-Burk, Dixon plots) against Bovine Carbonic Anhydrase-II
Assay type: biochemical
Run conditions: enzyme Vmax without inhibitor
Measure name: Vmax

Lab note: NS(=O)(=O)c1ccc(NC(=S)NC(=O)c2ccc(Cl)cc2Cl)cc1 [Compound 19] gave Vmax of 79.36 (μM/L/min)^−1

The compound identified as NS(=O)(=O)c1ccc(NC(=S)NC(=O)c2ccc(Cl)cc2[N+](=O)[O-])cc1 [Compound 12] registered its Vmax at 108.69 (μM/L/min)^−1

So for NS(=O)(=O)c1ccc(NC(=S)NC(=O)c2cccc([N+](=O)[O-])c2)cc1 [Compound 6] , the logged Vmax turned out to be 82.64 (μM/L/min)^−1

Record summary for COc1cc(OC)cc(C(=O)NC(=S)Nc2ccc(S(N)(=O)=O)cc2)c1 [Compound 16] : reported Vmax = 72.46 (μM/L/min)^−1

Form: compound = Cc1cccc(C(=O)NC(=S)Nc2ccc(S(N)(=O)=O)cc2)c1 [Compound 10] ; Vmax = 62.5 (μM/L/min)^−1

FYI, the data here is from patent US20170073306A1.
